subjectOfTest: recombinant soluble homotrimeric HA of A/Egypt/3300-NAMRU3/08 (H5N1) (Influenza A virus A/Egypt/3300-NAMRU3/2008(H5N1))
testMethodNotes: trimeric HA microarray, transfection supernatant set 4
conditionDescription: remark: other sources report otherwise
readoutName: Trimeric HA Binding: RLU

1. TCN-504 (3251_K17) (antibody, V domains shown) VH: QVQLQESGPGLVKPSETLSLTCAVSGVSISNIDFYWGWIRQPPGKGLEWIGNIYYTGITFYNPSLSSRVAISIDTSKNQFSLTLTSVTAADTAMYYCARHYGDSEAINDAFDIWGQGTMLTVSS VL: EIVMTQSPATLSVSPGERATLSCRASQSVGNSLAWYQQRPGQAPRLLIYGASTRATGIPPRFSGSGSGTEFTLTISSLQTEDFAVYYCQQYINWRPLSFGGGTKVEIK: 24800 RLU
2. TCN-536 (5095_N01) (antibody, V domains shown) VH: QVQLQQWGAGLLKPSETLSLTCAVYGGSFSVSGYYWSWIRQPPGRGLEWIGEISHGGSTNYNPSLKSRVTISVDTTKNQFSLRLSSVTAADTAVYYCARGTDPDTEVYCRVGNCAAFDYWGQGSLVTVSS VL: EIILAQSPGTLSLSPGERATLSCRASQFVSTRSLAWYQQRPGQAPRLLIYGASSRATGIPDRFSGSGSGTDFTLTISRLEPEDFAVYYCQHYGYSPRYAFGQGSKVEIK: 97 RLU
3. TCN-534 (5249_B02) (antibody, V domains shown) VH: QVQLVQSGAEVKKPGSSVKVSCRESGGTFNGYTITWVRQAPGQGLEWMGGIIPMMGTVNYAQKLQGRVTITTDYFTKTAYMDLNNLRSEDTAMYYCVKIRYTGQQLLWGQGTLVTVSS VL: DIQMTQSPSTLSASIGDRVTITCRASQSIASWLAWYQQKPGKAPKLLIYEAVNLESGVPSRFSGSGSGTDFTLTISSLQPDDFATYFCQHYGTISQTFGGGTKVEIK: 8310 RLU
4. TCN-535 (5246_P19) (antibody, V domains shown) VH: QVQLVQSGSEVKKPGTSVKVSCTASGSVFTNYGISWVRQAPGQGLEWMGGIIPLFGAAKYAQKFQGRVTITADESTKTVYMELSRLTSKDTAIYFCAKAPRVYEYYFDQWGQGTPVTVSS VL: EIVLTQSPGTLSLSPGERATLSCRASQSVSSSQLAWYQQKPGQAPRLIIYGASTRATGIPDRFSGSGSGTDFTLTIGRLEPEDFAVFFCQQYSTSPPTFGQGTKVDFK: 25300 RLU
5. TCN-523 (5248_A17) (antibody, V domains shown) VH: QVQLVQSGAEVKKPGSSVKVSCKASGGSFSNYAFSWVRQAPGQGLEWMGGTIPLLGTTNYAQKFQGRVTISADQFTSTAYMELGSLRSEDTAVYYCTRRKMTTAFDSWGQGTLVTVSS VL: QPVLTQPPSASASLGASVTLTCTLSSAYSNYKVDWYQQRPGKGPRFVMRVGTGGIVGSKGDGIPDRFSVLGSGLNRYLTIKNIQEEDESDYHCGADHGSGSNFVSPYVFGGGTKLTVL: 33400 RLU
